Target: recombinant human Itk kinase domain fused with GST (Homo sapiens)
Construct: recombinant human Itk kinase domain fused with GST; GST (Glutathione S-Transferase); made in house; host or cells: High five insect cells
Sequence (Q08881 363-615 limits assumed): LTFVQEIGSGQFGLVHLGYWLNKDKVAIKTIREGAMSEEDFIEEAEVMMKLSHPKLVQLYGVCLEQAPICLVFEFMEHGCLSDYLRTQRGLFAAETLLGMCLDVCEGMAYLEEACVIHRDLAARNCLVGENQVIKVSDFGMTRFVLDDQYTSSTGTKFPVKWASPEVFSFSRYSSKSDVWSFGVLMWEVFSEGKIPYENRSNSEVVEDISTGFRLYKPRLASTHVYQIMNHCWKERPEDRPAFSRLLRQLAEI
Assay: Itk LANCE TRF Assay
Assay type: biochemical
Conditions: 50 μM ATP, 2 μM biotinylated peptide substrate, 50 minutes RT; read-out: Inhibition of Kinase Itk (IC50 μM)
Structures can show the parent of a compound that is named as a salt.
Can you tell me IC50 for the items I'm about to list?
Numbers only, in µM.

COc1ccc(-c2[nH]c3ncc(Br)cc3c2N2CCNCC2)cc1 [Example 21, trifluoroacetate] = 0.09
Cc1cnc2[nH]c(-c3ccco3)c(C3CCCN(C(N)=O)C3)c2c1 (stereo not drawn) = 0.26

Give the value of IC50 reported for the following: CN(C)CCCOc1ccc(-c2[nH]c3ncc(Cl)cc3c2C2CCNCC2)cc1 0.18

Source of measurements: patent US20050215582A1
